Origin of values: PubChem BioAssay (NCI)

- System: SF-539 CNS
- EXPERIMENT DESCRIPTION: NCI tumour cell line growth inhibition, 48 h
Could you please report measured TGI for the items listed next?
Give the value in nM but do not write nM after it.

[ask] Kindly state the measured TGI obtained for "CCCS(=O)(=O)Nc1cccc(Nc2ncnc3cc(NC(=O)CCl)ccc23)c1Cl" with SF-539 CNS.
[reply] 4540

[ask] Kindly state the measured TGI obtained for "CC(=O)Nc1ccc(OC(C)=O)cc1" with SF-539 CNS.
[reply] 766

[ask] Kindly state the measured TGI obtained for "Cc1ccc(-c2nc(/C=N/Nc3cc(C)nc4ccc(Br)cc34)c(C)o2)cc1" with SF-539 CNS.
[reply] 3180

[ask] Kindly state the measured TGI obtained for CCN1C(=O)N(CC)C2C1NN=c1s/c(=C\c3ccc(C(F)(F)F)cc3)c(=O)n12 (stereo not given) with SF-539 CNS.
[reply] 785

[ask] Kindly state the measured TGI obtained for "CCOC(=O)c1c2c(n3ccc(NC(=O)CCN4CCCCC4)cc13)C(=O)c1ncccc1C2=O" with SF-539 CNS.
[reply] 2000

----------
Could you please report measured TGI for the items listed next?
- Test system: SK-MEL-5 melanoma
- EXPERIMENT DESCRIPTION: NCI tumour cell line growth inhibition, 48 h

[ask] Entry under review: "Cn1ccc(=NS(=O)(=O)c2ccccc2)cc1" . Reported TGI?
[reply] > 100 µM

[ask] Entry under review: "Cc1c(C(=O)Nc2ccccc2)nnn1-c1ccnc2cc(C(F)(F)F)ccc12" . Reported TGI?
[reply] 52.6 µM

[ask] Entry under review: CC[C@]1(Cc2ccc(OC)c(OC)c2)C2CC(C(=O)OC)ON2O[C@H](OCc2ccccc2)[C@@H]1OC(C)=O (stereo not given in full) . Reported TGI?
[reply] > 100 µM

[ask] Entry under review: "CN=C1CN=C(OP(=O)(N2CCOCC2)N2CCOCC2)c2cc(Cl)ccc2N1" . Reported TGI?
[reply] > 100 µM

[ask] Entry under review: "COc1cc2c(cc1O)c(=O)n(CCN(C)C)c1c3cc4c(cc3ncc21)OCO4" . Reported TGI?
[reply] 0.0312 µM

[ask] Entry under review: "COc1ccccc1NC(=O)CC(=O)n1nc(C)c(N=Nc2ccccc2Cl)c1C" . Reported TGI?
[reply] > 100 µM

[ask] Entry under review: "Cc1ccc2[nH]c(O)c(N=Nc3ccccc3[N+](=O)[O-])c2c1" . Reported TGI?
[reply] > 100 µM

[ask] Entry under review: "O=C(Nc1cccc(C(F)(F)F)c1)c1ccc(NC2=C(Cl)C(=O)N(Cc3ccccc3)C2=O)cc1" . Reported TGI?
[reply] 18.1 µM

[ask] Entry under review: "COc1ccccc1NC(=O)C1=C(C)NC(C)=C(C(=O)Nc2ccccc2OC)C1c1ccccc1Cl" . Reported TGI?
[reply] > 100 µM

[ask] Entry under review: O=C1CCCCCCCCCCC1CN1CCOCC1 (stereo not given) . Reported TGI?
[reply] > 100 µM

[ask] Entry under review: "Cc1ccc(/C=N/NS(=O)(=O)c2ccccc2)cc1C" . Reported TGI?
[reply] > 100 µM

[ask] Entry under review: "CS(=O)(=O)NNS(=O)(=O)c1ccc(F)cc1" . Reported TGI?
[reply] > 100 µM

[ask] Entry under review: "Cc1ccc(-c2nc(/C=N/Nc3cc(C)nc4ccc(Br)cc34)c(C)o2)cc1" . Reported TGI?
[reply] 13.6 µM

[ask] Entry under review: COc1ccc(C2CC(c3ccc(OC)cc3O)=NN2c2ccc(S(N)(=O)=O)cc2)cc1 (stereo not given) . Reported TGI?
[reply] > 100 µM

[ask] Entry under review: CCc1ccc(Cc2ccc(CC)c(NC(=O)C(=O)C3NC(=S)NC3=O)c2CC)c(CC)c1NC(=O)C(=O)C1NC(=S)NC1=O (stereo not given) . Reported TGI?
[reply] > 100 µM

[ask] Entry under review: "CC(=O)[CH-]C(C)=O.CC(=O)[CH-]C(C)=O.[Cl-].[O]=[V]" . Reported TGI?
[reply] 70.6 µM

[ask] Entry under review: O=C(CC1(O)C(=O)Nc2ccccc21)c1ccc(Cl)cc1Cl (stereo not given) . Reported TGI?
[reply] > 100 µM

[ask] Entry under review: "O=C(CCCC(=O)N/N=C/c1cc(Cl)ccc1O)N/N=C\c1cc(Cl)ccc1O" . Reported TGI?
[reply] > 100 µM

[ask] Entry under review: "CN(CCNC(=O)c1nn(-c2ccc(Cl)cc2Cl)c2c1Cc1ccccc1-2)CCNC(=O)c1nn(-c2ccc(Cl)cc2Cl)c2c1Cc1ccccc1-2" . Reported TGI?
[reply] 3.48 µM

[ask] Entry under review: C[C@]12CCc3nonc3C1CC[C@@H]1C2CC[C@@]2(C)C1CC[C@@H]2O (stereo not given in full) . Reported TGI?
[reply] > 100 µM
